- experimental_details: Solubility of synthesized peptides in aqueous phase
- Type: physicochemical
- details: in aqueous phase
Where a SMILES comes first, the peptide text is derived from it. Bridges are numbered along the chain shown (N, C = ends).
property_measured: solubility (mM)
Kindly answer with a numeric value in mM, unit omitted.

These solved cases illustrate the format of a correct answer.
CC[C@H](C)[C@@H]1NC(=O)[C@H](C(C)C)NC(=O)CNC(=O)[C@H](CCCNC(=N)N)NC(=O)[C@H](Cc2c[nH]c3ccccc23)NC(=O)[C@H]([C@@H](C)O)NC(=O)[C@H](CCCNC(=N)N)NC(=O)[C@H](C(C)C)NC(=O)CNC(=O)[C@@H](N)CSSC[C@@H](C(=O)O)NC(=O)[C@H](CCC(=O)O)NC1=O [C5/D5.5, CGVRTWRGVIEC] (H-CGVRTWRGVIEC-OH; disulfide 1-12; N-terminus and C-terminus assumed) ... 2
CC[C@H](C)[C@@H]1NC(=O)[C@H](C(C)C)NC(=O)[C@H](CCCNC(=N)N)NC(=O)[C@H](CCC(=O)O)NC(=O)[C@@H](N)CSSC[C@@H](C(=O)O)NC(=O)[C@H](CCCNC(=N)N)NC(=O)[C@H](C(C)C)NC(=O)[C@H](Cc2c[nH]c3ccccc23)NC(=O)CNC(=O)[C@H]([C@@H](C)O)NC(=O)CNC1=O [C5/D5.1, CERVIGTGWVRC] (H-CERVIGTGWVRC-OH; disulfide 1-12; N-terminus and C-terminus assumed) ... 10
CC[C@H](C)[C@H](NC(=O)[C@@H](NC(=O)[C@H](CCCNC(=N)N)NC(=O)[C@@H](N)CCC(=O)O)C(C)C)C(=O)NCC(=O)N[C@H](C(=O)NCC(=O)N[C@@H](Cc1c[nH]c2ccccc12)C(=O)N[C@H](C(=O)N[C@@H](CCCNC(=N)N)C(=O)O)C(C)C)[C@@H](C)O [C5/D5.4, ERVIGTGWVR] (H-ERVIGTGWVR-OH; N-terminus and C-terminus assumed) ... 10

Okay, next one:
Measured solubility, CC(C)[C@@H]1NC(=O)[C@H](Cc2c[nH]c3ccccc23)NC(=O)CNC(=O)[C@H](Cc2c[nH]cn2)NC(=O)CNC(=O)[C@@H]2CCCN2C(=O)[C@H](C(C)C)NC(=O)[C@H](CCCNC(=N)N)NC(=O)[C@H](Cc2c[nH]cn2)NC(=O)[C@@H](N)CSSC[C@@H](C(=O)O)NC(=O)[C@H](CCCNC(=N)N)NC1=O [C5/D5.12, CHRVPGHGWVRC] (H-CHRVPGHGWVRC-OH; disulfide 1-12; N-terminus and C-terminus assumed) : 1

###

- experimental_details: Solubility of synthesized peptides in aqueous phase
- Format: physicochemical
- details: in aqueous phase
Where a SMILES comes first, the peptide text is derived from it. Bridges are numbered along the chain shown (N, C = ends).
property_measured: solubility

Measured solubility, CC[C@H](C)[C@@H]1NC(=O)[C@H](C(C)C)NC(=O)[C@H](CCCNC(=N)N)NC(=O)[C@H](Cc2c[nH]cn2)NC(=O)[C@@H](N)CSSC[C@@H](C(=O)O)NC(=O)[C@H](CCCNC(=N)N)NC(=O)[C@H](C(C)C)NC(=O)[C@H](Cc2c[nH]c3ccccc23)NC(=O)CNC(=O)[C@H]([C@@H](C)O)NC(=O)CNC1=O [C5/D5.11, CHRVIGTGWVRC] (H-CHRVIGTGWVRC-OH; disulfide 1-12; N-terminus and C-terminus assumed) : 10 mM
